Sourced from the RNAGym collection of RNA variant scans (doi:10.7554/elife.80360)

Recorded measurements of self-cleavage, one per entry
B1: HDV Ribozyme (parent)
chain: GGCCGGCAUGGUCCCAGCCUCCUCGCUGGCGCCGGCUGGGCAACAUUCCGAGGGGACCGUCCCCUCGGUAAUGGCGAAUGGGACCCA

- Variants of: B1
- assay procedure: self-cleavage, relative activity (ratio to wild type); higher = more cleavage; co-transcriptional

mutation string	self-cleavage
C64A	0.908
A16G G40U	0.719
G28C A71G	0.222
C63G G81U	0.375
U37G A83C	0.0678
A78G C84A	0.571

Entry G38U C75G , self-cleavage reported as 0.0707

The variant C19U U37A showed self-cleavage equal to 0.0936

Lab book: self-cleavage of G34A G40C noted as 0.0482

The measured self-cleavage associated with C4A A51C reads 0.277

Lab book: self-cleavage of C19G U47C noted as 0.0852

For record C24A C61U the listed self-cleavage is 0.757

In plain terms, U9A U79G has a documented self-cleavage of 0.529

The measured self-cleavage associated with C36U A42U reads 0.208

U79A A87C has a reported self-cleavage of 0.849

Lab note: C13U C58G gave self-cleavage of 0.554

Field self-cleavage (entry A16C C32A ) reads 0.0554

The measured self-cleavage associated with A42C G81U reads 0.16

Value of measured self-cleavage for the entry A70G G73A : 0.432

self-cleavage measured on C7U C86U = 0.678

Field self-cleavage (entry U12G G29A ) reads 0.0978

self-cleavage in this record for C26G A71G : 0.475
